What follows is a collection of IC50 values obtained with Dual specificity protein kinase CLK4 (Homo sapiens, UniProt Q9HAZ1).
Sequence (Q9HAZ1 whole entry): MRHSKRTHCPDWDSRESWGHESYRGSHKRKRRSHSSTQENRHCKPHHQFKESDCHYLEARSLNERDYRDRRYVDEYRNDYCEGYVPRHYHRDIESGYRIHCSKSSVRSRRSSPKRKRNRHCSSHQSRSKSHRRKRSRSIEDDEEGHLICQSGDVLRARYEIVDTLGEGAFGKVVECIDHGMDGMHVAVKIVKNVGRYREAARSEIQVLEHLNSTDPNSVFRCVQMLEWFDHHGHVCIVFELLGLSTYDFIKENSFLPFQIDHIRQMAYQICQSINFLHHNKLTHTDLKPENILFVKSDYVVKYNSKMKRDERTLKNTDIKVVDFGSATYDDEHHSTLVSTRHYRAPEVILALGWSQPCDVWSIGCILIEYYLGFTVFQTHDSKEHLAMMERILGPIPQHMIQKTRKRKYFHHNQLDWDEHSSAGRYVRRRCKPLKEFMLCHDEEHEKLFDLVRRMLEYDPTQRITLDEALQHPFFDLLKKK

# MOL, IC50
measured = [
    ("COC[C@@H](CC(C)C)NC1=N/C(=C\\c2ccc3ncsc3c2)C(=O)N1C1CCCCC1", "4910 nM"),
    ("COC[C@@H](CC(C)C)NC1=N/C(=C\\c2ccc3nc(C)sc3c2)C(=O)N1C", "673 nM"),
    ("COC[C@@H](CC(C)C)NC1=N/C(=C\\c2ccc3c(c2)OCO3)C(=O)N1C", "77.1 nM"),
    ("COC[C@@H](CC(C)C)NC1=N/C(=C\\c2ccc3scnc3c2)C(=O)N1C", "> 10000 nM"),
    ("COC[C@@H](CC(C)C)NC1=N/C(=C\\c2ccc3nn(C)cc3c2)C(=O)N1C", "153 nM"),
]

Please look up its IC50: COC[C@@H](CC(C)C)NC1=N/C(=C\c2ccc3c(c2)ncn3C)C(=O)N1C
> 10000 nM

What do we get for COC[C@@H](CC(C)C)NC1=N/C(=C\c2ccc3[nH]cnc3c2)C(=O)N1C ?
2.1 nM

What do we get for CCN1C(=O)/C(=C/c2ccc3ncsc3c2)N=C1N[C@@H](COC)CC(C)C ?
58.5 nM

###

Target: UniProt:Q9HAZ1
Categories are defined by ranges of IC50, namely c1 (below 30 nM), c2 (30 nM to below 300 nM), c3 (300 nM or more)

# MOL, LABEL_VALUE
data = [
    ("COC[C@@H](CC(C)C)NC1=N/C(=C\\c2ccc3[nH]cnc3c2)C(=O)N1", "c2"),
]

Which category does the recorded IC50 put COC[C@@H](CC(C)C)NC1=N/C(=C\c2ccc3c(ccn3C)c2)C(=O)N1 in?
c3

What do we get for COC[C@@H](CC(C)C)NC1=N/C(=C\c2cc3scnc3cn2)C(=O)N1 ?
c3

What do we get for COC[C@@H](CC(C)C)NC1=N/C(=C\c2ccc3nnsc3c2)C(=O)N1 ?
c2

What do we get for COC[C@@H](CC(C)C)NC1=N/C(=C\c2ccc3c(c2)CCO3)C(=O)N1 ?
c1

What do we get for COC[C@@H](CC(C)C)NC1=N/C(=C\c2ccc3ncsc3n2)C(=O)N1 ?
c1

What do we get for COC[C@@H](CC(C)C)NC1=N/C(=C\c2ccc3c(ccn3C)c2)C(=O)N1C ?
c3

What do we get for COC[C@@H](CC(C)C)NC1=N/C(=C\c2ccc3ncsc3c2)C(=O)N1C1CC1 ?
c2

What do we get for COC[C@@H](CC(C)C)NC1=N/C(=C\c2ccc3c(c2)ncn3C)C(=O)N1 ?
c3

What do we get for COC[C@@H](CC(C)C)NC1=N/C(=C\c2ccc3[nH]ccc3c2)C(=O)N1 ?
c3

What do we get for COC[C@@H](CC(C)C)NC1=N/C(=C\c2ccc3ncn(C)c3c2)C(=O)N1 ?
c1

###

Biological target: Dual specificity tyrosine-phosphorylation-regulated kinase 4 (Homo sapiens)
Sequence (Q9NR20 whole entry): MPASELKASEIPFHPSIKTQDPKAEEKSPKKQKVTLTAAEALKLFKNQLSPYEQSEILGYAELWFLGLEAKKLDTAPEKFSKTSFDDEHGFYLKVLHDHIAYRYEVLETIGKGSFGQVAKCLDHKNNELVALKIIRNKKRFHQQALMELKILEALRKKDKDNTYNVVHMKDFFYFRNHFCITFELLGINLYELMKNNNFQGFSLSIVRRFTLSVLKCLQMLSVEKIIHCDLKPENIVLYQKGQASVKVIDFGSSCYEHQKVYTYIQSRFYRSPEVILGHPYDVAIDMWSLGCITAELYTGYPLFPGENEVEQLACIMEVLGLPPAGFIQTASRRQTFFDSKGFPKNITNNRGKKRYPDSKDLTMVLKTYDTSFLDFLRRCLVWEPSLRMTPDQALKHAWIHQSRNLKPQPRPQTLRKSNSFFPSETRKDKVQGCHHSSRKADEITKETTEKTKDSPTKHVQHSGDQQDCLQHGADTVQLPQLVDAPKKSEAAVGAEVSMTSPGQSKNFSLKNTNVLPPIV
Below, each of the compounds is paired with its reported log10(IC50) value.
Short version: log10 scale, IC50, nM.

Example entries and their recorded answers appear below.
# MOL, REPORTED_RESULT
records = [
    ("CCN1C(=O)/C(=C/c2ccc3ncsc3c2)N=C1N[C@@H](COC)CC(C)C", 3.41),
    ("O=C1NC(Nc2ccccc2)=N/C1=C\\c1ccc2c(c1)OCO2", 2.71),
]

Please look up its log10(IC50): COC[C@@H](CC(C)C)NC1=N/C(=C\c2ccc3ncsc3n2)C(=O)N1
3.68

What do we get for CC(C)C[C@H](CO)NC1=N/C(=C\c2ccc3ncsc3c2)C(=O)N1 ?
2.71

What do we get for CC(C)C[C@@H](CO)NC1=N/C(=C\c2ccc3ncsc3c2)C(=O)N1 ?
3.71

What do we get for COC[C@@H](CC(C)C)NC1=N/C(=C\c2ccc3ncsc3c2)C(=O)N1C1CC1 ?
3.46

What do we get for COC[C@@H](CC(C)C)NC1=N/C(=C\c2ccc3ncsc3c2)C(=O)N1C ?
2.72
